Known pIC50 of a selection of compounds
- Tested on: PBMCs
- TEST_METHOD_NOTES: LPS-induced TNFα/IL-8 release in PBMC cells
- Type: cell-based
- RECORDED_CONDITIONS: Homo sapiens, LPS-stimulated PBMCs, IL-8, read-out: IC50 Values for Inhibition of Cytokine Release, PBMCs IL-8
# pIC50: negative log10 of molar concentration; output just the value

The following compounds have reported results that may help.
>>> result("CC(C)(C)c1cc(NC(=O)Nc2ccc(Oc3ccnc(Nc4cccc(OCCN5CCOCC5)c4)n3)c3ccccc23)n(-c2ccc(P(C)(C)=O)cc2)n1")
8.27
>>> result("COc1cc(Nc2nccc(Oc3ccc(NC(=O)Nc4cc(C(C)C)nn4-c4cccc(CP(C)(C)=O)c4)c4ccccc34)n2)cc(S(=O)(=O)C2CC2)c1")
8.23

Lab note: next compound to report on.
Inquiry: // fetch pIC50 given entry CC(C)(C)c1cc(NC(=O)Nc2ccc(Oc3ccnc(Nc4ccc5c(c4)NC(=O)C5)n3)c3ccccc23)n(-c2cccc(CP(C)(C)=O)c2)n1
Reply text: 8.62

* * *

Values of IC50 reported for UniProt Q16539 appear below.
Sequence (Q16539 whole entry): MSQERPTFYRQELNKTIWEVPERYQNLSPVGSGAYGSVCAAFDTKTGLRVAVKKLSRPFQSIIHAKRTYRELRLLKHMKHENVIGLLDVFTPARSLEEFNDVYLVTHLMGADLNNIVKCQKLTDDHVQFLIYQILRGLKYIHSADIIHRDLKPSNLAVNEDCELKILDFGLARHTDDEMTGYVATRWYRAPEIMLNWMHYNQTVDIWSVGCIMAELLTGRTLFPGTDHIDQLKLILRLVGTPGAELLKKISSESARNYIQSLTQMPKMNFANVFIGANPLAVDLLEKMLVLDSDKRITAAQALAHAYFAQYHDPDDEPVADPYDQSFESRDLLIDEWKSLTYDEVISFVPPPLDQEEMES
Kindly answer with a numeric value in nM, unit omitted.

>>> result("CC(C)(C)c1cc(NC(=O)Nc2ccc(Oc3ccnc(Nc4ccccc4)n3)c3ccccc23)n(-c2cccc(CP(C)(C)=O)c2)n1 [Example 23]")
265
>>> result("Cc1cc(Nc2nccc(Oc3ccc(NC(=O)Nc4cc(C(C)(C)C)nn4-c4ccc(P(C)(C)=O)cc4)c4ccccc34)n2)cc2cn[nH]c12 [Example 21]")
44

Lab note: next compound to report on.
Inquiry: For UniProt Q16539, give IC50 of the listed compound: CC(C)c1cc(NC(=O)Nc2ccc(Oc3ccnc(Nc4cc(OCCN5CCOCC5)cc(OC(F)(F)F)c4)n3)c3ccccc23)n(-c2cccc(CP(C)(C)=O)c2)n1 [Example 48]
Reply text: 231

* * *

- STUDY_TARGET: GSK3α (Homo sapiens (Human), UniProt P49840)
- Sequence (P49840 whole entry): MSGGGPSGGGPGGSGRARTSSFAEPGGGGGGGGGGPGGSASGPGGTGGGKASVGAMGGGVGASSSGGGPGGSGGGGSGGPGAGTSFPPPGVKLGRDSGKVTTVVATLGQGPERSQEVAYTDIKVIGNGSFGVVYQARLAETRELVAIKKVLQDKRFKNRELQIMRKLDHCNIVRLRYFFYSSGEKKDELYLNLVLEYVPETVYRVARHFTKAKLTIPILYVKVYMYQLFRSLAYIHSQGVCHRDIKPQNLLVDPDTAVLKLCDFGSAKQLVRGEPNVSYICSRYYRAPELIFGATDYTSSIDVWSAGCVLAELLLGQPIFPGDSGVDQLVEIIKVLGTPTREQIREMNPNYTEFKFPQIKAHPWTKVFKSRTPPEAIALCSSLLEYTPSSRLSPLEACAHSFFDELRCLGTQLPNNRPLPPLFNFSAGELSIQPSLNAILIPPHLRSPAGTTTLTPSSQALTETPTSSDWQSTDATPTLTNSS
MEASURED_METRIC: pIC50
# pIC50: negative log10 of molar concentration; output just the value

The following molecules have reported results that may help.
>>> result("CC(C)c1cc(NC(=O)Nc2ccc(Oc3ccnc(Nc4cc(OCCN5CCOCC5)cc(S(C)(=O)=O)c4)n3)c3ccccc23)n(-c2cccc(CP(C)(C)=O)c2)n1 [Example 53]")
6.73
>>> result("C[Si](C)(C)c1cc(NC(=O)Nc2ccc(Oc3ccnc(Nc4ccccc4)n3)c3ccccc23)n(-c2ccc(P(C)(C)=O)cc2)n1 [Example 5]")
6.37
>>> result("COCCOCCOCCOCCOc1cc(Nc2nccc(Oc3ccc(NC(=O)Nc4cc(C(C)C)nn4-c4cccc(CP(C)(C)=O)c4)c4ccccc34)n2)cc(OC)c1 [Example 52]")
5.92
>>> result("COCCOCCOCCOCCOCCOc1cc(Nc2nccc(Oc3ccc(NC(=O)Nc4cc(C(C)C)nn4-c4cccc(CP(C)(C)=O)c4)c4ccccc34)n2)cc(OC)c1 [Example 55]")
5.78
>>> result("CC(C)(C)c1cc(NC(=O)Nc2ccc(Oc3ccnc(Nc4ccc5[nH]ncc5c4)n3)c3ccccc23)n(-c2ccc(P(C)(C)=O)cc2)n1 [Example 7]")
6.31
>>> result("CC(C)(C)c1cc(NC(=O)Nc2ccc(Oc3ccnc(Nc4cccc(C(=O)NCCN5CCOCC5)c4)n3)c3ccccc23)n(-c2ccc(P(C)(C)=O)cc2)n1 [Example 24]")
6.53

Inquiry: For GSK3α (Homo sapiens (Human), UniProt P49840), give pIC50 of the listed molecule: COc1cc(Nc2nccc(Oc3ccc(NC(=O)Nc4cc(C(C)(C)C)nn4-c4cccc(CP(C)(C)=O)c4)c4ccccc34)n2)cc(C(=O)NCCN2CCOCC2)c1 [Example 47]
Reply text: 6.39

* * *

Values of pIC50 reported for Syk (Homo sapiens (Human), UniProt P43405) appear below.
# pIC50: negative log10 of molar concentration; output just the value

>>> result("COc1cc(Nc2nccc(Oc3ccc(NC(=O)Nc4cc(C(C)C)nn4-c4cccc(CP(C)(C)=O)c4)c4ccccc34)n2)cc(OCCN2CCOCC2)c1")
9.00

Inquiry: // fetch pIC50 given entry CC(C)c1cc(NC(=O)Nc2ccc(Oc3ccnc(Nc4cc(OCCN5CCOCC5)cc(OC(F)(F)F)c4)n3)c3ccccc23)n(-c2cccc(CP(C)(C)=O)c2)n1
Reply text: 6.63

Inquiry: // fetch pIC50 given entry CC(C)(C)c1cc(NC(=O)Nc2ccc(Oc3ccnc(Nc4cc(OC(F)(F)F)cc(C(=O)NCCN5CCOCC5)c4)n3)c3ccccc23)n(-c2cccc(CP(C)(C)=O)c2)n1
Reply text: 7.74

* * *

Known log10 IC50 of a selection of molecules
- System: PBMCs
- TEST_METHOD_NOTES: LPS-induced TNFα/IL-8 release in PBMC cells
- Format: cell-based
- RECORDED_CONDITIONS: Homo sapiens, LPS-stimulated PBMCs, IL-8, read-out: IC50 Values for Inhibition of Cytokine Release, PBMCs IL-8
Answers are given as log10 of IC50 in nM.

>>> result("COc1cc(Nc2cc(Oc3ccc(NC(=O)Nc4cc(C(C)C)nn4-c4cccc(CP(C)(C)=O)c4)c4ccccc34)ccn2)cc(OCCN2CCOCC2)c1")
-0.30
>>> result("C#Cc1cc(Nc2nccc(Oc3ccc(NC(=O)Nc4cc(C(C)C)nn4-c4cccc(CP(C)(C)=O)c4)c4ccccc34)n2)cc(OCCN2CCOCC2)c1")
0.23
>>> result("COc1ccccc1Nc1nccc(Oc2ccc(NC(=O)Nc3cc(C(C)C)nn3-c3cccc(CP(C)(C)=O)c3)c3ccccc23)n1")
2.02
>>> result("CC(C)(C)c1cc(NC(=O)Nc2ccc(Oc3ccnc(Nc4ccc5onc(N)c5c4)n3)c3ccccc23)n(-c2cccc(P(C)(C)=O)c2)n1")
0.93

Lab note: next molecule to report on.
Inquiry: // fetch log10 IC50 given entry CC(C)(C)c1cc(NC(=O)Nc2ccc(Oc3ccnc(Nc4cccc(OCCN5CCOCC5)c4)n3)c3ccccc23)n(-c2cccc(CP(C)(C)=O)c2)n1
Reply text: 0.04

* * *

- Tested on: PBMCs
- TEST_METHOD_NOTES: LPS-induced TNFα/IL-8 release in PBMC cells
- Format: cell-based
- RECORDED_CONDITIONS: Homo sapiens, LPS-stimulated PBMCs, IL-8, read-out: IC50 Values for Inhibition of Cytokine Release, PBMCs IL-8
- Text: Peripheral blood mononuclear cells (PBMCs) from healthy subjects are separated from whole blood using a density gradient (Lymphoprep, Axis-Shield Healthcare). […] The supernatant is harvested for determination of IL-8 and TNFα concentrations by sandwich ELISA (Duo-set, R&D systems) and read on the fluorescence microplate reader (Varioskan® Flash, ThermoFisher Scientific). […]
MEASURED_METRIC: pIC50
# pIC50: negative log10 of molar concentration; output just the value

The following compounds have reported results that may help.
>>> result("CC(C)(C)c1cc(NC(=O)Nc2ccc(Oc3ccnc(Nc4ccccc4)c3)c3ccccc23)n(-c2cccc(CP3(=O)CCCC3)c2)n1")
8.40
>>> result("COc1cc(Nc2nccc(Oc3ccc(NC(=O)Nc4cc(C(C)C)nn4-c4cccc(CP(C)(C)=O)c4)c4ncccc34)n2)cc(OCCN2CCOCC2)c1")
7.56

Inquiry: // fetch pIC50 given entry CC(C)(C)c1cc(NC(=O)Nc2ccc(Oc3ccnc(Nc4ccc5[nH]ncc5c4)n3)c3ccccc23)n(-c2ccc(P(C)(C)=O)cc2)n1
Reply text: 8.17

Inquiry: // fetch pIC50 given entry CC(C)(C)c1cc(NC(=O)Nc2ccc(Oc3ccnc(Nc4ccc5[nH]ncc5c4)n3)c3ccccc23)n(-c2cccc(P(C)(C)=O)c2)n1
Reply text: 7.86

Inquiry: // fetch pIC50 given entry Cc1cc(Nc2nccc(Oc3ccc(NC(=O)Nc4cc(C(C)(C)C)nn4-c4cccc(P(C)(C)=O)c4)c4ccccc34)n2)cc2cn[nH]c12
Reply text: 8.47

Inquiry: // fetch pIC50 given entry CC(C)(C)c1cc(NC(=O)Nc2ccc(Oc3ccnc(Nc4ccccc4)n3)c3ccccc23)n(-c2ccc(P3(=O)CCCC3)cc2)n1
Reply text: 7.76

Inquiry: // fetch pIC50 given entry CC(C)(C)c1cc(NC(=O)Nc2ccc(Oc3ccnc(Nc4ccccc4)n3)c3ccccc23)n(-c2ccc(CP(C)(C)=O)cc2)n1
Reply text: 8.19

* * *

Values of IC50 reported for GSK3α (Homo sapiens (Human)) appear below.

The following molecules have reported results that may help.
>>> result("COc1cc(Nc2nccc(Oc3ccc(NC(=O)Nc4cc(C(C)C)nn4-c4cccc(CP(C)(C)=O)c4)c4ncccc34)n2)cc(OCCN2CCOCC2)c1 [Example 54]")
"> 10 µM"
>>> result("CC(C)c1cc(NC(=O)Nc2ccc(Oc3ccnc(Nc4cc(OCCN5CCOCC5)cc(C(F)(F)F)c4)n3)c3ccccc23)n(-c2cccc(CP(C)(C)=O)c2)n1 [Example 49]")
"> 10 µM"

Lab note: next molecule to report on.
Inquiry: For GSK3α (Homo sapiens (Human)), give IC50 of the listed molecule: CN(CCCO)c1nccc(Oc2ccc(NC(=O)Nc3cc(C(C)(C)C)nn3-c3ccc(P(C)(C)=O)cc3)c3ccccc23)n1 [Example 30]
Reply text: > 10 µM
